Assayed System: T1, Biotinylated human ICOS protein (human, UniProt Q9Y6W8 21-140, limits assumed, biotinylated (sites not given))
T1 construct: Captured on the NLC chip in the avidity SPR
T1 sequence: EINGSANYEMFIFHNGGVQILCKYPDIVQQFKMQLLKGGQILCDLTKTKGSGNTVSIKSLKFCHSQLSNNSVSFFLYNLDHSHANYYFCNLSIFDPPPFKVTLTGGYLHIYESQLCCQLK
Assay Summary: SPR ProteOn avidity format, biotinylated human ICOS on NLC chip, antibody analyte, 25 C
Recorded Metric: koff (s⁻¹)
Number in s⁻¹, nothing else.

Please indicate koff recorded for STIM001_457_LAGA (bispecific antibody, V domains shown, not shown: a dimerising Fc or GST, LAGA variant of STIM001_457) VH: QVQVVQSGAEVKKPGASVKVSCKASGYTFSTFGITWVRQAPGQGLEWMGWISAYNGDTNYAQNLQGRVIMTTDTSTSTAYMELRSLRSDDTAVYYCARSSGHYYYYGMDVWGQGTTVTVSS VL: DIVMTQSPLSLPVTPGEPASISCRSSQSLLHSNEYNYLDWYLQKPGQSPQLLIFLGSNRASGVPDRFSGSGSGTDFTLKITRVEAEDVGIYYCMQSLQTPLTFGGGTKVEIK
0.000332
